Provide the recorded Concentration for the entries that follow.
- TEST_SUMMARY: Solubility analysis in water and media of different pH, HPLC
- Type: physicochemical
- CONDITION_INFO: Water for injection, 37° C.±1° C.
# unit: µg/mL | format: bare number

-- ask // Concentration lookup, key: Cc1cncc(CN2CCC(=C3c4ccccc4CC(=O)c4sccc43)CC2)c1.O=C(O)/C=C/C(=O)O [Mixed crystal]
-- reply 1980

-- ask Thanks! And Cc1cncc(CN2CCC(=C3c4ccccc4CC(=O)c4sccc43)CC2)c1.O=C(O)/C=C/C(=O)O [Crystalline form A] ?
-- reply 1790

-- ask Repeat for the following compound: Cc1cncc(CN2CCC(=C3c4ccccc4CC(=O)c4sccc43)CC2)c1.O=C(O)/C=C/C(=O)O [Crystalline form B]
-- reply 1220

-- ask Similarly, Cc1cncc(CN2CCC(=C3c4ccccc4CC(=O)c4sccc43)CC2)c1.O=C(O)/C=C/C(=O)O [Crystalline form C] ?
-- reply 2460

---

- TEST_SUMMARY: Solubility analysis in water and media of different pH, HPLC
- Format: physicochemical
- CONDITION_INFO: pH = 5.5, 37° C.±1° C.
ENDPOINT_NAME: Equilibrium Solubility (mg/250 ml)
Expressed in mg/250 ml, but write only the number.

-- ask Param item = Cc1cncc(CN2CCC(=C3c4ccccc4CC(=O)c4sccc43)CC2)c1.O=C(O)/C=C/C(=O)O [Crystalline form C] ; retrieve measured Equilibrium Solubility.
-- reply 77.90

-- ask Now consider Cc1cncc(CN2CCC(=C3c4ccccc4CC(=O)c4sccc43)CC2)c1.O=C(O)/C=C/C(=O)O [Mixed crystal] and answer again.
-- reply 76.85

-- ask Field entry: Cc1cncc(CN2CCC(=C3c4ccccc4CC(=O)c4sccc43)CC2)c1.O=C(O)/C=C/C(=O)O [Crystalline form B]
-- reply 44.97

-- ask Next compound: Cc1cncc(CN2CCC(=C3c4ccccc4CC(=O)c4sccc43)CC2)c1.O=C(O)/C=C/C(=O)O [Crystalline form A]
-- reply 84.93

---

- TEST_SUMMARY: Solubility analysis in water and media of different pH, HPLC
- Assay type: physicochemical
- CONDITION_INFO: pH = 4.0, 37° C.±1° C.
So I've got a bunch of compounds here, and I need their Equilibrium Solubility values.
Hi! Could you send only the number? It should be in mg/250 ml, unit omitted.

-- ask Recorded Equilibrium Solubility of Cc1cncc(CN2CCC(=C3c4ccccc4CC(=O)c4sccc43)CC2)c1.O=C(O)/C=C/C(=O)O [Crystalline form C] , please.
-- reply 710.90

-- ask Now this one: Cc1cncc(CN2CCC(=C3c4ccccc4CC(=O)c4sccc43)CC2)c1.O=C(O)/C=C/C(=O)O [Mixed crystal]
-- reply 633.71

-- ask Similarly, Cc1cncc(CN2CCC(=C3c4ccccc4CC(=O)c4sccc43)CC2)c1.O=C(O)/C=C/C(=O)O [Crystalline form B] ?
-- reply 352.76

-- ask Same lookup for Cc1cncc(CN2CCC(=C3c4ccccc4CC(=O)c4sccc43)CC2)c1.O=C(O)/C=C/C(=O)O [Crystalline form A] , please.
-- reply 571.88

---

- TEST_SUMMARY: Solubility analysis in water and media of different pH, HPLC
- Assay type: physicochemical
- CONDITION_INFO: water-soluble medium of pH 6.8, 37 °C, pH 6.8, aqueous buffer, thermodynamic from solid, pH = 6.8, 37° C.±1° C.; read-out: Concentration
ENDPOINT_NAME: solubility thermodynamic (µg/mL)
Respond numerically; units are µg/mL and should not be typed.

-- ask Given Cc1cncc(CN2CCC(=C3c4ccccc4CC(=O)c4sccc43)CC2)c1.O=C(O)/C=C/C(=O)O [Crystalline form B] , state its recorded solubility thermodynamic.
-- reply 10

---

- TEST_SUMMARY: Hygroscopicity analysis (weight gain, Chinese Pharmacopoeia 2020 guideline 9103)
- Assay type: physicochemical
- CONDITION_INFO: 25° C.±1° C., constant humidity, 24 hours
Task for the reader: assign each of the following compounds its reported Weight Gain.
Give the value, in units of %, as a plain number.

-- ask Request the reported Weight Gain associated with Cc1cncc(CN2CCC(=C3c4ccccc4CC(=O)c4sccc43)CC2)c1.O=C(O)/C=C/C(=O)O [Mixed crystal]
-- reply 0.4

-- ask Again, but for Cc1cncc(CN2CCC(=C3c4ccccc4CC(=O)c4sccc43)CC2)c1.O=C(O)/C=C/C(=O)O [Crystalline form A]
-- reply 0.3

-- ask Also Cc1cncc(CN2CCC(=C3c4ccccc4CC(=O)c4sccc43)CC2)c1.O=C(O)/C=C/C(=O)O [Crystalline form C] , if possible.
-- reply 0.06

-- ask For Cc1cncc(CN2CCC(=C3c4ccccc4CC(=O)c4sccc43)CC2)c1.O=C(O)/C=C/C(=O)O [Crystalline form B] then?
-- reply 0.2

---

I'd appreciate it if you could supply Angle of Repose values for the items below.
- TEST_SUMMARY: Fluidity detection: angle of repose by fixed cone bottom method
- Assay type: physicochemical
- CONDITION_INFO: average of three, <30° fluidity better, >40° poor
Enter the number, and then the unit.

-- ask What value of Angle of Repose has been recorded for this entry: Cc1cncc(CN2CCC(=C3c4ccccc4CC(=O)c4sccc43)CC2)c1.O=C(O)/C=C/C(=O)O [Crystalline form A]
-- reply 47°

-- ask Same again, this time with Cc1cncc(CN2CCC(=C3c4ccccc4CC(=O)c4sccc43)CC2)c1.O=C(O)/C=C/C(=O)O [Crystalline form C]
-- reply 28°

-- ask Proceed to Cc1cncc(CN2CCC(=C3c4ccccc4CC(=O)c4sccc43)CC2)c1.O=C(O)/C=C/C(=O)O [Crystalline form B]
-- reply 50°

-- ask Likewise for Cc1cncc(CN2CCC(=C3c4ccccc4CC(=O)c4sccc43)CC2)c1.O=C(O)/C=C/C(=O)O [Mixed crystal] ?
-- reply 49°

---

- TEST_SUMMARY: Solubility analysis in water and media of different pH, HPLC
- Format: physicochemical
- CONDITION_INFO: water-soluble medium of pH 2.2, 37 °C, pH 2.2, aqueous buffer, thermodynamic from solid, pH = 2.2, 37° C.±1° C.; read-out: Concentration
ENDPOINT_NAME: solubility thermodynamic (µg/mL)
Supply the numeric figure in µg/mL, leaving out any unit text.

-- ask So what does the record say about solubility thermodynamic for Cc1cncc(CN2CCC(=C3c4ccccc4CC(=O)c4sccc43)CC2)c1.O=C(O)/C=C/C(=O)O [Crystalline form C] ?
-- reply 4050

---

- TEST_SUMMARY: Solubility analysis in water and media of different pH, HPLC
- Type: physicochemical
- CONDITION_INFO: Water for injection, 37° C.±1° C.
ENDPOINT_NAME: Equilibrium Solubility (mg/250 ml)
# value in mg/250 ml; strip the unit string

-- ask Give its Equilibrium Solubility value. Item: Cc1cncc(CN2CCC(=C3c4ccccc4CC(=O)c4sccc43)CC2)c1.O=C(O)/C=C/C(=O)O [Crystalline form A]
-- reply 448.75

-- ask Also, Cc1cncc(CN2CCC(=C3c4ccccc4CC(=O)c4sccc43)CC2)c1.O=C(O)/C=C/C(=O)O [Crystalline form B] please.
-- reply 305.45

-- ask Lookup Cc1cncc(CN2CCC(=C3c4ccccc4CC(=O)c4sccc43)CC2)c1.O=C(O)/C=C/C(=O)O [Mixed crystal]
-- reply 495.71

-- ask Try this molecule next: Cc1cncc(CN2CCC(=C3c4ccccc4CC(=O)c4sccc43)CC2)c1.O=C(O)/C=C/C(=O)O [Crystalline form C]
-- reply 616.34

---

- TEST_SUMMARY: Solubility analysis in water and media of different pH, HPLC
- Type: physicochemical
- CONDITION_INFO: pH = 1.2, 37° C.±1° C.
I'd appreciate it if you could supply Equilibrium Solubility values for the items below.
Reply numerically in mg/250 ml, unit not repeated.

-- ask What measured Equilibrium Solubility goes with Cc1cncc(CN2CCC(=C3c4ccccc4CC(=O)c4sccc43)CC2)c1.O=C(O)/C=C/C(=O)O [Crystalline form B] ?
-- reply 7355.56

-- ask Please answer likewise for Cc1cncc(CN2CCC(=C3c4ccccc4CC(=O)c4sccc43)CC2)c1.O=C(O)/C=C/C(=O)O [Crystalline form A]
-- reply 6669.86

-- ask Moving on to Cc1cncc(CN2CCC(=C3c4ccccc4CC(=O)c4sccc43)CC2)c1.O=C(O)/C=C/C(=O)O [Mixed crystal]
-- reply 6117.84

-- ask Now the compound Cc1cncc(CN2CCC(=C3c4ccccc4CC(=O)c4sccc43)CC2)c1.O=C(O)/C=C/C(=O)O [Crystalline form C]
-- reply 4908.73

---

- TEST_SUMMARY: Solubility analysis in water and media of different pH, HPLC
- Format: physicochemical
- CONDITION_INFO: pH = 4.5, 37° C.±1° C.
ENDPOINT_NAME: Concentration (µg/mL)
Respond numerically; units are µg/mL and should not be typed.

-- ask Requested field: Concentration. Item: Cc1cncc(CN2CCC(=C3c4ccccc4CC(=O)c4sccc43)CC2)c1.O=C(O)/C=C/C(=O)O [Mixed crystal]
-- reply 3430

-- ask Try Cc1cncc(CN2CCC(=C3c4ccccc4CC(=O)c4sccc43)CC2)c1.O=C(O)/C=C/C(=O)O [Crystalline form A] next.
-- reply 2990

-- ask Then what about the compound Cc1cncc(CN2CCC(=C3c4ccccc4CC(=O)c4sccc43)CC2)c1.O=C(O)/C=C/C(=O)O [Crystalline form B] ?
-- reply 1360

-- ask Next compound up: Cc1cncc(CN2CCC(=C3c4ccccc4CC(=O)c4sccc43)CC2)c1.O=C(O)/C=C/C(=O)O [Crystalline form C]
-- reply 3770
